Reported values of growth for individual entries
System: UACC-62 melanoma
Assay: NCI-60 one-dose screen, 48 h (100 = growth as untreated, 0 = no growth, -100 = all killed)
Details: 10 µM unless noted
This is part of a sample that, as a whole, favours compounds with a hit. Of some 83,000 tested, about 20% had one in any assay.
Just the number please, in %, no unit attached.

Solved entries:
Compound	growth (%)
Nc1c(F)cc(-c2nc3cc(F)ccc3[se]2)cc1F	66.5
O=[N+]([O-])c1ccc(OP(=O)(CCl)N(CCCl)CCCl)cc1 (centres undefined)	104
CC[C@H](C)[C@H](NC(=O)c1ccccn1)C(=O)N(C)[C@H](C[C@@H](OC(C)=O)c1nc(C(=O)N[C@@H](Cc2ccccc2)C[C@H](C)C(=O)OC)cs1)C(C)C	13.1
COc1ccc(C2=CC(c3ccc(OC)c(OC)c3)c3c(c4ccccc4oc3=O)O2)cc1OC (centres undefined)	36.8
O=C(N/N=C\c1ccc(N(CCCl)CCCl)cc1Cl)c1cccnc1	-40.4

Proceed to the following item.
Reported growth for CC(=O)/C=C/c1ccc2c(c1)OCO2 was 90.2

---

Test system: SN12C renal
Test: NCI-60 one-dose screen, 48 h
Details: 10 µM unless noted
Compounds without any hit were thinned out: in the full panel of roughly 83,000, 20% have a hit. Calls of active or inactive are those of the source. How the source made its calls: active means growth percent below 10; inactive means the rest.
Hi there, use one of these labels in your reply, thanks! True = active, False = inactive

Answered examples (7):
Substance smiles	Group
N#C[S-].[Au+].c1ccc(CN2[CH-]N(Cc3ccccc3)C(c3ccccc3)=C2c2ccccc2)cc1	True
COC(=O)[C@@H](C)C[C@H](Cc1ccccc1)NC(=O)c1csc([C@@H](C[C@H](C(C)C)N(C)C(=O)[C@@H](NC(=O)C23CC(NC(C)=O)(C2)C3)C2CC2)OC(C)=O)n1	False
COC(=O)[C@@H](C[C@H](Cc1ccccc1)NC(=O)c1csc([C@@H](C[C@H](C(C)C)N(C)C(=O)[C@@H](NC(=O)[C@H]2CCCCN2C)C(C)C)OC(C)=O)n1)NC(=O)OCc1ccccc1	False
N#C[Se]CCN1C(=O)c2ccccc2C1=O	False
CCOC(=O)CCN(C)C1=Nc2ccc(Cl)cc2C(c2ccccc2)=[N+]([O-])C1	False
O=C(Nc1ccc(Br)cc1)c1cc(Br)cc(Br)c1O	True
C1CCC2(CC1)OOCNCOO2	False

Now for another entry.
Query :: What was the test verdict on COc1ccc(/C=C\c2cc(OC)c(OC)c(OC)c2)cc1NS(=O)(=O)c1ccc(Cl)cc1 ?
Result :: False

---

Tested on: SK-MEL-2 melanoma
Assay: NCI-60 one-dose screen, 48 h (100 = growth as untreated, 0 = no growth, -100 = all killed)
Conditions: 10 µM unless noted
This is part of a sample that, as a whole, favours compounds with a hit. Of some 83,000 tested, about 20% had one in any assay.
Experimental endpoint: growth (%)
Just the number please, in %, no unit attached.

Substance smiles	Recorded result
CC(=O)O[C@H](C[C@H](C(C)C)N(C)C(=O)[C@@H](NC(=O)[C@H]1CCCCN1C)C(C)C)c1nc(C(=O)N[C@@H](Cc2ccccc2)C[C@H](C)C(=O)O)c(CCOCc2ccccc2)s1	2.3
Clc1ccc(N2COOC3(OOC2)C2CC4CC(C2)CC3C4)cc1	87.4
Cc1ccc(C(=O)NCCCOc2ccc(N)cc2Cl)cc1S(=O)(=O)F	78.7

Proceed to the following item.
Reported growth for CC[C@H](C)[C@H](NC(=O)[C@H]1CCCCN1C)C(=O)N(C)[C@H](C[C@@H](OC(C)=O)c1cccc(C(=O)N[C@@H](Cc2ccccc2)C[C@H](C)C(=O)O)n1)C(C)C was 36.3

---

Test system: RXF 393 renal
Test: NCI-60 one-dose screen, 48 h
Conditions: 10 µM unless noted
Compounds without any hit were thinned out: in the full panel of roughly 83,000, 20% have a hit. Calls of active or inactive are those of the source. How the source made its calls: active means growth percent below 10; inactive means the rest.
Hi there, use one of these labels in your reply, thanks! True = active, False = inactive

Compound	Group
c1cnc2[nH]cc(-c3csc(-c4cn(CCCCN5CCOCC5)c5ccccc45)n3)c2c1	False
CC(=O)OCC1O[C@@H]([S-])C(OC(C)=O)[C@H](OC(C)=O)[C@@H]1OC(C)=O.[Au+].c1ccc(CN2[CH-]N(Cc3ccccc3)C(c3ccccc3)=C2c2ccccc2)cc1	True
CCOP1(=O)CC(C)=C(Cl)C(P(=O)(OCC)OCC)C1 (configuration not stated)	False
CC(=O)Oc1ccccc1C(=O)NCCC[Se]C#N	True
COc1ccc(N(CC(=O)NCCC[Te]c2ccccc2)C(=O)CCSC2=C(C)C(=O)c3ccccc3C2=O)cc1	True

Query :: What was the test verdict on COC(=O)[C@@H](C)C[C@H](Cc1ccccc1)NC(=O)c1csc([C@@H](C[C@H](C(C)C)N(C)C(=O)[C@H](C)NC(=O)[C@H]2CCCCN2C)OC(C)=O)n1 ?
Result :: True

Query :: What was the test verdict on NC1CC2CCCCC2CC1(O)c1ccccc1 (configuration not stated) ?
Result :: False

Query :: What was the test verdict on CC(C)(C)C(=O)OCOP(=O)(NCc1ccccc1)C1CCCN(O)C1=O (configuration not stated) ?
Result :: True

---

System: NCI/ADR-RES ovarian
Assay: NCI-60 one-dose screen, 48 h (100 = growth as untreated, 0 = no growth, -100 = all killed)
Conditions: 10 µM unless noted
Compounds without any hit were thinned out: in the full panel of roughly 83,000, 20% have a hit.
Experimental endpoint: growth (%)
Just the number please, in %, no unit attached.

Solved entries:
Substance smiles	growth [%]
COc1ccc(Nc2ccc([N+](=O)[O-])cc2[N+](=O)[O-])cc1CN(CCCl)CCCl	26.9
COc1ccc(/C=C/c2cc(OC)c(OC)c(OC)c2)cc1NC(=O)/C=C/c1ccc(F)cc1	-3.74
COC(=O)[C@@H](C)C[C@H](Cc1ccccc1)NC(=O)c1csc([C@@H](C[C@H](C(C)C)N(C)C(=O)[C@@H](NC(=O)[C@H]2CCCCN2C)C2CC2)OC(C)=O)n1	8.28
OCc1ccc2c(c1)OCO2	105
COc1cc(C=Nc2cccc(C(=O)O)c2)ccc1N(CCCl)CCCl	103
CC1(C)[C@H](O)[C@H](F)C[C@@]2(C)Oc3ccc(C(=O)Nc4ccc5c(c4)NC(=O)C54CCN(CCCCC#N)CC4)cc3C[C@H]12	83.4
CC(C)=CCc1c(O)c(C(=O)CC(C)C)c(O)c2c(-c3ccccc3)cc(=O)oc12	35.6

Proceed to the following item.
Reported growth for COC(=O)[C@@H](C)C[C@H](Cc1ccc2ccccc2c1)NC(=O)c1csc([C@@H](C[C@H](C(C)C)N(C)C(=O)[C@@H](NC(=O)[C@H]2CCCCN2C)C(C)C)OC(C)=O)n1 was 60.3

---

Reported values of growth for individual entries
Test system: TK-10 renal
Test: NCI-60 one-dose screen, 48 h (100 = growth as untreated, 0 = no growth, -100 = all killed)
Details: 10 µM unless noted
The panel holds about 83,000 compounds, 20% with a hit somewhere; the sample as a whole holds those more often. The source made the active and inactive calls. The calls were made as follows: active = growth percent below 10; inactive = the rest.

Reported growth for COc1ccc(C2=N[C@@H](Cc3ccccc3)C(=O)Nc3ccsc32)cc1 was 70.3% (inactive)

Reported growth for CN1CCCCC1C(C)(O)c1ccccc1 (stereo unspecified) was 94.9% (inactive)

Reported growth for COc1ccc(-n2c(C)nc3cc(OC)c(OC)cc3c2=O)cc1OC was 102% (inactive)

Reported growth for O=c1[nH]cc(N(CCCl)CCCl)c(=O)[nH]1 was 86.8% (inactive)

Reported growth for CCn1nccc1NC(=O)C(=O)c1cn(Cc2ccc(F)cc2)c2cccc(OC)c12 was 120% (inactive)

Reported growth for COC(=O)[C@@H](C)C[C@H](Cc1ccccc1)NC(=O)c1csc([C@@H](C[C@H](C(C)C)N(C)C(=O)[C@H](C)NC(=O)[C@H]2CCCCN2C)OC(C)=O)n1 was 61.7% (inactive)

Reported growth for O=C1OCCC1Br (stereo unspecified) was 104% (inactive)

---

System: DU-145 prostate
Assay: NCI-60 one-dose screen, 48 h (100 = growth as untreated, 0 = no growth, -100 = all killed)
Details: 10 µM unless noted
Method: Cells are grown in 96 well plates and exposed to the test compound for 48 hours. Compounds are tested at a single concentration, which is 10^-5 M for most compounds. The reported endpoint is percent growth (GI% or GIPRCNT), where numbers from 0 - 100% represent growth inhibition, and numbers from -100% - 0 represent cell death. For example, a value of 40 represents 60% growth inhibition. A value of 0 means no net growth occurred over the course of the experiment. […]
Compounds without any hit were thinned out: in the full panel of roughly 83,000, 20% have a hit.
Reported values of growth for individual entries
Just the number please, in %, no unit attached.

Compound	growth, %
CC[CH2][Sn]([Cl])([Cl])[CH2]CC	106

Reported growth for COC(=O)[C@@H](C)C[C@H](Cc1ccccc1)NC(=O)c1nc([C@@H](C[C@H](C(C)C)N(C)C(=O)[C@@H](NC(=O)[C@H]2CCCN2C)C(C)C)OC(C)=O)sc1C was 17.7

Reported growth for CCCCCSC1C2C(=O)C(Br)=CC13CCNc1c(O)c4c5c(c13)=[N+]2CCC=5C=N4 (stereo unspecified) was -100

Reported growth for N#C[Se]Cc1cc(-c2ccccc2)n(-c2ccc(S(N)(=O)=O)cc2)n1 was -85.6

Reported growth for Cc1ccccc1NC(=NCCCN1CC1)Nc1ccccc1C was 90.1

Reported growth for C/C(Cc1ccc(Cl)cc1)=C(\c1ccc(OCCN2CCOCC2)cc1)c1ccc(OC(=O)Cc2ccccc2)cc1 was 107

Reported growth for CC12CCC3C(CCC4Cc5[nH]c6ccccc6c5CC43C)C1CCC2O (stereo unspecified) was -21.2

Reported growth for CC(=O)ONc1ccc([N+](=O)[O-])c(C(F)(F)F)c1 was 108
